target: Epidermal growth factor receptor (Homo sapiens, UniProt P00533); experiment: Inhibition of EGFR phosphorylation in human A431 cells after 10 mins by FLISA
Sequence (P00533 whole entry): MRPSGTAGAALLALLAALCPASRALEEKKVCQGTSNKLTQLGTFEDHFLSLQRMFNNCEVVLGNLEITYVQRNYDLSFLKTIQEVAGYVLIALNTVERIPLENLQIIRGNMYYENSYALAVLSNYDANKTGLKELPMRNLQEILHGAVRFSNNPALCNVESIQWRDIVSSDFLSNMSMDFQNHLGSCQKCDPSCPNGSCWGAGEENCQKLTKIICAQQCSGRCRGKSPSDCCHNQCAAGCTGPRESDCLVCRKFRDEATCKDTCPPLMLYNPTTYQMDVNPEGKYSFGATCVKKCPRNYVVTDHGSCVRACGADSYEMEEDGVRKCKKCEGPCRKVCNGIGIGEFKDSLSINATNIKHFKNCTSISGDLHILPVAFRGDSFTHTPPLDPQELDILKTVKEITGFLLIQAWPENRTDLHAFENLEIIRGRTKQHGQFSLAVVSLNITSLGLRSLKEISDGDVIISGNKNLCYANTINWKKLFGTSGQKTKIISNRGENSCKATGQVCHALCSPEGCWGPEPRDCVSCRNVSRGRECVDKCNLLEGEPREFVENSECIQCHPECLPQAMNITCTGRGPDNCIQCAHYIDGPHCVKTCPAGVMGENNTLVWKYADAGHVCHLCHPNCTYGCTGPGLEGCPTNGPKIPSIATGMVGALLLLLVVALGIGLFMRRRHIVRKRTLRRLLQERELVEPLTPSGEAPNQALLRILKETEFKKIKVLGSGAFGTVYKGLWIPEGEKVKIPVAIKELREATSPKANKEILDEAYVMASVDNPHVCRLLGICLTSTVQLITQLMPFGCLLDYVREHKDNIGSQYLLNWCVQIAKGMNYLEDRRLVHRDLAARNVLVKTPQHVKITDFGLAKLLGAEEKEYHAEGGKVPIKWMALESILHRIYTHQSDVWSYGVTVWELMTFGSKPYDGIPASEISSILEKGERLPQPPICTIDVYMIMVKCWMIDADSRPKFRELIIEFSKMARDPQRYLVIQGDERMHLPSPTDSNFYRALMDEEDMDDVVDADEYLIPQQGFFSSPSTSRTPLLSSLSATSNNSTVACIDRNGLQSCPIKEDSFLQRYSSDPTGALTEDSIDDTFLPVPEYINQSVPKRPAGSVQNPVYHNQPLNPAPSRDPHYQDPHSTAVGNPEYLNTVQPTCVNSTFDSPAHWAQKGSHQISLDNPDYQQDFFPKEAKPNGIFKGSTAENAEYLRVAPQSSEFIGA
OUTCOME MEASURE: IC50 (µM)
One number for each entry, in µM.

Example results:
Nc1nc(Nc2cccc(C(F)(F)F)c2)c2cc(Cc3ccc(Cl)cc3Cl)[nH]c2n1 :: 27.2
FC(F)(F)c1cccc(Nc2ncnc3[nH]c(Cc4ccc(Cl)cc4Cl)cc23)c1 :: 33.1

Please look at the following compound next.
[ask] Which IC50 is reported for this compound? Nc1nc(Nc2ccc(C(F)(F)F)c(F)c2)c2cc(Cc3ccc(Cl)cc3Cl)[nH]c2n1
[reply] 91.7
